- Tested on: SNB-75 CNS
- Measurement Description: NCI tumour cell line growth inhibition, 48 h
Endpoint Label: TGI

Known TGI results, listed for orientation:
[
  {
    "Compound": "Oc1[nH]c2ccccc2c1N=Nc1c(F)c(F)c(F)c(F)c1F",
    "TGI": "> 100 µM"
  },
  {
    "Compound": "CC1NC(=O)C2=C1C(N)=NC(=O)C2 (configuration not stated)",
    "TGI": "> 100 µM"
  },
  {
    "Compound": "CCCN(CCC)c1c([N+](=O)[O-])cc(C(=O)N(CCO)CCO)cc1[N+](=O)[O-]",
    "TGI": "> 100 µM"
  }
]

For record COc1cc2c(cc1C1=NC(C)(C)CO1)OCO2 the listed TGI is > 100 µM

For record Cn1c(=S)c2[nH]c(SCCN3C(=O)c4ccccc4C3=O)nc2n(C)c1=O the listed TGI is > 100 µM

For record C#CCN(C(=O)C(F)(F)F)c1ccc(C(=O)c2ccc(N(CC#C)C(=O)C(F)(F)F)cc2)cc1 the listed TGI is > 100 µM

For record COC1CCC(=O)N1CN(C(C)=O)c1ccc(C)cc1 (configuration not stated) the listed TGI is > 100 µM

For record NC1Cc2ccccc2OC1=O (configuration not stated) the listed TGI is > 100 µM

For record COc1ccc(-n2c(=O)n(-c3ccccc3)c(=O)n2-c2ccc(OC)cc2)cc1 the listed TGI is > 100 µM

For record O=C1CCCCC/C1=C\c1ccccc1 the listed TGI is > 100 µM

---

Below, each entry is listed with its recorded TGI.
- Tested on: HOP-62 NSCLC
- Measurement Description: NCI tumour cell line growth inhibition, 48 h

Known TGI results, listed for orientation:
[
  {
    "Molecule": "CCOC(=O)C1([Se]c2ccccc2)CCCC1=O (stereo not given)",
    "Assayed Target": "HOP-62 NSCLC",
    "Endpoint Label": "TGI",
    "Observed": "> 100 µM"
  },
  {
    "Molecule": "CC(=O)NNc1nc(C)c(C(=O)NNC(=O)C(=O)Nc2ccc([N+](=O)[O-])cc2C#N)s1",
    "Assayed Target": "HOP-62 NSCLC",
    "Endpoint Label": "TGI",
    "Observed": "> 100 µM"
  },
  {
    "Molecule": "CCOC(=O)/C(=C/c1ccc(N(CCC#N)CCC#N)cc1C)NC(=O)/C=C/c1ccccc1",
    "Assayed Target": "HOP-62 NSCLC",
    "Endpoint Label": "TGI",
    "Observed": "> 100 µM"
  },
  {
    "Molecule": "CN(C)c1ccc(C(c2ccc(Cl)cc2)c2ccc(N(C)C)cc2)cc1",
    "Assayed Target": "HOP-62 NSCLC",
    "Endpoint Label": "TGI",
    "Observed": "> 100 µM"
  }
]

# value of TGI, HOP-62 NSCLC, item Cc1c(N2C(=O)/C(=C/c3ccc(N(CCC#N)CCC#N)cc3)N=C2c2ccccc2)c(=O)n(-c2ccccc2)n1C = > 100 µM

---

- System: SNB-78 CNS
- Measurement Description: NCI tumour cell line growth inhibition, 48 h
Endpoint Label: TGI

Known TGI results, listed for orientation:
[
  {
    "Compound": "COC1C2c3cc4c(cc3CC(C#N)(c3ccccc32)N1C(=O)c1ccccc1)OCO4 (stereo unspecified)",
    "Assayed Target": "SNB-78 CNS",
    "Observed": "> 100 µM"
  },
  {
    "Compound": "COC1OC(C)C2OC(C)(C)OC2C1OC(C)=O (stereo unspecified)",
    "Assayed Target": "SNB-78 CNS",
    "Observed": "> 100 µM"
  },
  {
    "Compound": "O=C(OC/C=C1C=C(OC(=O)c2ccccc2)/C(=N/N(C(=O)c2ccccc2)c2ccccc2)O\\1)c1ccccc1",
    "Assayed Target": "SNB-78 CNS",
    "Observed": "67.1 µM"
  }
]

# value of TGI, SNB-78 CNS, item Cc1ccc(C)c(NC(=O)CC2SC(=Nc3ccccc3Cl)NC2=O)c1 (stereo unspecified) = > 100 µM

# value of TGI, SNB-78 CNS, item CC(=O)OC1CC[C@@]2(C)C(CC[C@]3(C)C2CC=C2[C@@H]4C(C)[C@H](C)CCC4(C)CCC23C)[C@@]1(C)C(=O)O (stereo partly specified) = 65.6 µM

# value of TGI, SNB-78 CNS, item O=C1C2C3C=C4c5ccccc5N(c5ccccc5)C4(C2C(=O)N1c1ccc(Br)cc1)[C@H]1C(=O)N(c2ccc(Br)cc2)C(=O)[C@@H]31 (stereo partly specified) = > 100 µM

From: PubChem BioAssay (NCI)
